Value source: the supplement of paper PMC8617591

test system: Mycobacterium tuberculosis Erdman (autoluminescent); assay: GRinf, maximum normalised growth rate inhibition (three-drug combination) (unitless (-1 to 1)); higher = less effect (negative = killing); conditions: in vitro model: acidic pH 5.7; time point: terminal (~4-5 doublings, model-specific)
readout_type: GRinf
A bare number is all that is needed in reply.

Incoming: Sample CC[C@@H](CO)NCCN[C@@H](CC)CO [ethambutol] + NNC(=O)c1ccncc1 [isoniazid] + O=[N+]([O-])c1cn2c(n1)OC[C@@H](OCc1ccc(OC(F)(F)F)cc1)C2 [pretomanid] — what was its GRinf?
Outgoing: -0.36

Incoming: Sample CC(C)/N=c1\cc2n(-c3ccc(Cl)cc3)c3ccccc3nc-2cc1Nc1ccc(Cl)cc1 [clofazimine] + CC[C@@H](CO)NCCN[C@@H](CC)CO [ethambutol] + O=[N+]([O-])c1cn2c(n1)OC[C@@H](OCc1ccc(OC(F)(F)F)cc1)C2 [pretomanid] — what was its GRinf?
Outgoing: -0.21

Incoming: Sample CC[C@@H](CO)NCCN[C@@H](CC)CO [ethambutol] + CO[C@H]1/C=C/O[C@@]2(C)Oc3c(C)c(O)c4c(O)c(c(/C=N/N5CCN(C6CCCC6)CC5)c(O)c4c3C2=O)NC(=O)/C(C)=C\C=C\[C@H](C)[C@H](O)[C@@H](C)[C@@H](O)[C@@H](C)[C@H](OC(C)=O)[C@@H]1C [rifapentine] + CO[C@H]1/C=C/O[C@@]2(C)Oc3c(C)c(O)c4c(O)c(c(/C=N/N5CCN(C)CC5)c(O)c4c3C2=O)NC(=O)/C(C)=C\C=C\[C@H](C)[C@H](O)[C@@H](C)[C@@H](O)[C@@H](C)[C@H](OC(C)=O)[C@@H]1C [rifampicin] — what was its GRinf?
Outgoing: -0.0521

Incoming: Sample COc1nc2ccc(Br)cc2cc1[C@@H](c1ccccc1)[C@@](O)(CCN(C)C)c1cccc2ccccc12 [bedaquiline] + NC(=O)c1cnccn1 [pyrazinamide] + CO[C@H]1/C=C/O[C@@]2(C)Oc3c(C)c(O)c4c(O)c(c(/C=N/N5CCN(C6CCCC6)CC5)c(O)c4c3C2=O)NC(=O)/C(C)=C\C=C\[C@H](C)[C@H](O)[C@@H](C)[C@@H](O)[C@@H](C)[C@H](OC(C)=O)[C@@H]1C [rifapentine] — what was its GRinf?
Outgoing: -0.331

Incoming: Sample NNC(=O)c1ccncc1 [isoniazid] + NC(=O)c1cnccn1 [pyrazinamide] + CO[C@H]1/C=C/O[C@@]2(C)Oc3c(C)c(O)c4c(O)c(c(/C=N/N5CCN(C)CC5)c(O)c4c3C2=O)NC(=O)/C(C)=C\C=C\[C@H](C)[C@H](O)[C@@H](C)[C@@H](O)[C@@H](C)[C@H](OC(C)=O)[C@@H]1C [rifampicin] — what was its GRinf?
Outgoing: -0.193

Incoming: Sample COc1nc2ccc(Br)cc2cc1[C@@H](c1ccccc1)[C@@](O)(CCN(C)C)c1cccc2ccccc12 [bedaquiline] + CC(=O)NC[C@H]1CN(c2ccc(N3CCOCC3)c(F)c2)C(=O)O1 [linezolid] + CO[C@H]1/C=C/O[C@@]2(C)Oc3c(C)c(O)c4c(O)c(c(/C=N/N5CCN(C6CCCC6)CC5)c(O)c4c3C2=O)NC(=O)/C(C)=C\C=C\[C@H](C)[C@H](O)[C@@H](C)[C@@H](O)[C@@H](C)[C@H](OC(C)=O)[C@@H]1C [rifapentine] — what was its GRinf?
Outgoing: -0.26

Incoming: Sample CC[C@@H](CO)NCCN[C@@H](CC)CO [ethambutol] + NNC(=O)c1ccncc1 [isoniazid] + CO[C@H]1/C=C/O[C@@]2(C)Oc3c(C)c(O)c4c(O)c(c(/C=N/N5CCN(C6CCCC6)CC5)c(O)c4c3C2=O)NC(=O)/C(C)=C\C=C\[C@H](C)[C@H](O)[C@@H](C)[C@@H](O)[C@@H](C)[C@H](OC(C)=O)[C@@H]1C [rifapentine] — what was its GRinf?
Outgoing: -0.12

----------
system: Mycobacterium tuberculosis Erdman (autoluminescent); assay: AUC25, normalised area under dose response up to IC25 (three-drug combination) (fraction (0-1)); higher = more potent at low dose; settings: in vitro model: butyrate; time point: constant (~7 days, model-specific)
Consider the following compounds; for each one, report its AUC25.
A bare number is all that is needed in reply.

Incoming: What is its AUC25 for Mycobacterium tuberculosis Erdman (autoluminescent)? Entry: CC[C@@H](CO)NCCN[C@@H](CC)CO [ethambutol] + NNC(=O)c1ccncc1 [isoniazid] + O=[N+]([O-])c1cn2c(n1)OC[C@@H](OCc1ccc(OC(F)(F)F)cc1)C2 [pretomanid]
Outgoing: 0.0954

Incoming: What is its AUC25 for Mycobacterium tuberculosis Erdman (autoluminescent)? Entry: NC(=O)c1cnccn1 [pyrazinamide] + CO[C@H]1/C=C/O[C@@]2(C)Oc3c(C)c(O)c4c(O)c(c(/C=N/N5CCN(C6CCCC6)CC5)c(O)c4c3C2=O)NC(=O)/C(C)=C\C=C\[C@H](C)[C@H](O)[C@@H](C)[C@@H](O)[C@@H](C)[C@H](OC(C)=O)[C@@H]1C [rifapentine] + CO[C@H]1/C=C/O[C@@]2(C)Oc3c(C)c(O)c4c(O)c(c(/C=N/N5CCN(C)CC5)c(O)c4c3C2=O)NC(=O)/C(C)=C\C=C\[C@H](C)[C@H](O)[C@@H](C)[C@@H](O)[C@@H](C)[C@H](OC(C)=O)[C@@H]1C
Outgoing: 0.117

Incoming: What is its AUC25 for Mycobacterium tuberculosis Erdman (autoluminescent)? Entry: COc1nc2ccc(Br)cc2cc1[C@@H](c1ccccc1)[C@@](O)(CCN(C)C)c1cccc2ccccc12 [bedaquiline] + COc1c(N2C[C@@H]3CCCN[C@@H]3C2)c(F)cc2c(=O)c(C(=O)O)cn(C3CC3)c12 [moxifloxacin] + CO[C@H]1/C=C/O[C@@]2(C)Oc3c(C)c(O)c4c(O)c(c(/C=N/N5CCN(C6CCCC6)CC5)c(O)c4c3C2=O)NC(=O)/C(C)=C\C=C\[C@H](C)[C@H](O)[C@@H](C)[C@@H](O)[C@@H](C)[C@H](OC(C)=O)[C@@H]1C [rifapentine]
Outgoing: 0.1

----------
system: Mycobacterium tuberculosis Erdman (autoluminescent); assay: GRinf, maximum normalised growth rate inhibition (three-drug combination) (unitless (-1 to 1)); higher = less effect (negative = killing); conditions: in vitro model: dormancy (butyrate + nitrate, low O2); time point: constant (~7 days, model-specific)
readout_type: GRinf
A bare number is all that is needed in reply.

Incoming: What is its GRinf for Mycobacterium tuberculosis Erdman (autoluminescent)? Entry: CC[C@@H](CO)NCCN[C@@H](CC)CO [ethambutol] + CO[C@H]1/C=C/O[C@@]2(C)Oc3c(C)c(O)c4c(O)c(c(/C=N/N5CCN(C6CCCC6)CC5)c(O)c4c3C2=O)NC(=O)/C(C)=C\C=C\[C@H](C)[C@H](O)[C@@H](C)[C@@H](O)[C@@H](C)[C@H](OC(C)=O)[C@@H]1C [rifapentine] + CO[C@H]1/C=C/O[C@@]2(C)Oc3c(C)c(O)c4c(O)c(c(/C=N/N5CCN(C)CC5)c(O)c4c3C2=O)NC(=O)/C(C)=C\C=C\[C@H](C)[C@H](O)[C@@H](C)[C@@H](O)[C@@H](C)[C@H](OC(C)=O)[C@@H]1C [rifampicin]
Outgoing: 0.363

Incoming: What is its GRinf for Mycobacterium tuberculosis Erdman (autoluminescent)? Entry: COc1nc2ccc(Br)cc2cc1[C@@H](c1ccccc1)[C@@](O)(CCN(C)C)c1cccc2ccccc12 [bedaquiline] + NNC(=O)c1ccncc1 [isoniazid] + CO[C@H]1/C=C/O[C@@]2(C)Oc3c(C)c(O)c4c(O)c(c(/C=N/N5CCN(C)CC5)c(O)c4c3C2=O)NC(=O)/C(C)=C\C=C\[C@H](C)[C@H](O)[C@@H](C)[C@@H](O)[C@@H](C)[C@H](OC(C)=O)[C@@H]1C [rifampicin]
Outgoing: 0.222

----------
tested on: Mycobacterium tuberculosis Erdman (autoluminescent); test: total FIC50 (Loewe) at 50% inhibition, three-drug combination (log2); higher = more antagonistic; details: in vitro model: acidic pH 5.7; time point: terminal (~4-5 doublings, model-specific)
readout_type: total FIC50
A bare number is all that is needed in reply.

Incoming: Sample CC[C@@H](CO)NCCN[C@@H](CC)CO [ethambutol] + CC(=O)NC[C@H]1CN(c2ccc(N3CCOCC3)c(F)c2)C(=O)O1 [linezolid] + CO[C@H]1/C=C/O[C@@]2(C)Oc3c(C)c(O)c4c(O)c(c(/C=N/N5CCN(C6CCCC6)CC5)c(O)c4c3C2=O)NC(=O)/C(C)=C\C=C\[C@H](C)[C@H](O)[C@@H](C)[C@@H](O)[C@@H](C)[C@H](OC(C)=O)[C@@H]1C [rifapentine] — what was its total FIC50?
Outgoing: 1.01

Incoming: Sample CC(C)/N=c1\cc2n(-c3ccc(Cl)cc3)c3ccccc3nc-2cc1Nc1ccc(Cl)cc1 [clofazimine] + CC(=O)NC[C@H]1CN(c2ccc(N3CCOCC3)c(F)c2)C(=O)O1 [linezolid] + O=[N+]([O-])c1cn2c(n1)OC[C@@H](OCc1ccc(OC(F)(F)F)cc1)C2 [pretomanid] — what was its total FIC50?
Outgoing: 1.03

Incoming: Sample CC(C)/N=c1\cc2n(-c3ccc(Cl)cc3)c3ccccc3nc-2cc1Nc1ccc(Cl)cc1 [clofazimine] + CC(=O)NC[C@H]1CN(c2ccc(N3CCOCC3)c(F)c2)C(=O)O1 [linezolid] + CO[C@H]1/C=C/O[C@@]2(C)Oc3c(C)c(O)c4c(O)c(c(/C=N/N5CCN(C6CCCC6)CC5)c(O)c4c3C2=O)NC(=O)/C(C)=C\C=C\[C@H](C)[C@H](O)[C@@H](C)[C@@H](O)[C@@H](C)[C@H](OC(C)=O)[C@@H]1C [rifapentine] — what was its total FIC50?
Outgoing: 0.455
